Biological target: T1, human formyl peptide receptor 1 (FPR1) (human, UniProt P21462 1-350)
T1 construct: formyl peptide receptor 1, human, overexpressed in HEK293 cells; also called FPR1-HEK293; source: HEK293, transiently overexpressed
T1 sequence (looked up): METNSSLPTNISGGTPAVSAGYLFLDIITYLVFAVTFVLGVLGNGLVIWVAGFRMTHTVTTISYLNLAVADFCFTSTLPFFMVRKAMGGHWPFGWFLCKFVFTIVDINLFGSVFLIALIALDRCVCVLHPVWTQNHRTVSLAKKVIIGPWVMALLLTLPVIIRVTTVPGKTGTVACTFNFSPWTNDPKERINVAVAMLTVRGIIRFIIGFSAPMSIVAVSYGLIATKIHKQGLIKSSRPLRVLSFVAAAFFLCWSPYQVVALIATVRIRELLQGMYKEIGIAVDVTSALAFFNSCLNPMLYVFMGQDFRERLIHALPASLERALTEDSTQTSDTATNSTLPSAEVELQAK
Test: other fluorescence titration; saturation binding assay; BODIPY FL iodoacetamide-labelled SCIMP^N with membrane component (debris) of HEK293 cells overexpressing FPRs, black/clear bottom 96-well plate, quenching of the label on binding, excited at 370 nm, detected at 512 nm, measured for 4 min
Conditions: one partner purified
Where no end group is shown, it is not given here.
QUANTITY MEASURED: pKd
Scale explanation: pKd corresponds to minus log10 of a concentration expressed in moles per litre.

Item: MDTFTVQDSTAMSWWRNN (also: labeled with BODIPY FL iodoacetamide, site not given here, the 18 amino acids before the transmembrane domain at the N-terminus (extramembrane fragment); also called SCIMP N-terminal peptides; source: synthetic peptide (Chinese-Peptide-Company.Inc), purity more than 95%) [human SCIMP N-terminus peptide (SCIMP^N, 18aa)] | pKd: 8.42
